# key: entry, value: phosphorylation enrichment
Target: Fyn (UniProt P06241)
Sequence (P06241 whole entry, looked up): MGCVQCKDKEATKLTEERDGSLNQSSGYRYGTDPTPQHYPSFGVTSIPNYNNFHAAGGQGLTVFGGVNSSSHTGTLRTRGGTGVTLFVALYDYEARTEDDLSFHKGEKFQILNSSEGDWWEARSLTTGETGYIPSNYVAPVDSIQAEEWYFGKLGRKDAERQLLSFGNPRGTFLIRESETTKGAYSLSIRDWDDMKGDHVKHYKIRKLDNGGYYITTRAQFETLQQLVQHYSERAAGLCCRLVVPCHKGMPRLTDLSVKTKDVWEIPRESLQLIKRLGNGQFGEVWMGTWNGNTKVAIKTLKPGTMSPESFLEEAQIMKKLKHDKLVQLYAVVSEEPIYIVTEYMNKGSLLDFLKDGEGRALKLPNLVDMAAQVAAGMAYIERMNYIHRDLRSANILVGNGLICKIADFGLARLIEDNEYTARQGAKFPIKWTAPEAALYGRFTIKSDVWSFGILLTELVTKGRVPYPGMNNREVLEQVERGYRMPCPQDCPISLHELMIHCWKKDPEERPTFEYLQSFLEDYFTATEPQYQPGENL
Experiment: phosphorylation enrichment, bacterial display (enrichment ratio); higher = better substrate or ligand; peptides without Tyr show the background

NKEAICSGYIR [SMCHD1_Y283_Y283C]
0.369
VTVLDYEKIGK [SYT1_Y365_D366E]
0.479
LTELGYSFVTT [ACTA1_Y200_R198L]
1.88
GGFTCCCDGKK [PROS1_Y266_Y266C_YF]
0.463
VERIGYDFIPT [CBS_Y308_G305R]
0.529

Lookup: For the sequence shown here, LSAPEYGPKLK [TBC1D14_Y46] , give the reported phosphorylation enrichment.
Found: 0.451

Lookup: For the sequence shown here, LQRCKYSHMEP [TEX45_Y434] , give the reported phosphorylation enrichment.
Found: 0.375

Lookup: For the sequence shown here, DFDNLYFWDQD [ERBB2_Y1221_A1216D_YF] , give the reported phosphorylation enrichment.
Found: 6.47

Lookup: For the sequence shown here, QGIPWYHSQSP [FOXF1_Y331_R330W] , give the reported phosphorylation enrichment.
Found: 0.46

Lookup: For the sequence shown here, FGLTLYPNSRE [MEP1A_Y472_V469L] , give the reported phosphorylation enrichment.
Found: 0.471

Lookup: For the sequence shown here, `ANNEFYFQVCA` , give the reported phosphorylation enrichment.
Found: 0.478

Lookup: For the sequence shown here, CERLPYDANKW [FLT1_Y815_S818N] , give the reported phosphorylation enrichment.
Found: 0.506

Lookup: For the sequence shown here, PESIMYRKFTT [NTRK3_Y744] , give the reported phosphorylation enrichment.
Found: 0.67

Lookup: For the sequence shown here, TEDELYQLFLQ [RASGRP2_Y378_S381F] , give the reported phosphorylation enrichment.
Found: 4.54

Lookup: For the sequence shown here, IKELTYQMEED [MYH7_Y1852_T1854M] , give the reported phosphorylation enrichment.
Found: 0.889

Lookup: For the sequence shown here, KVWGIYDCQQP [CYP3A7_Y75] , give the reported phosphorylation enrichment.
Found: 7.28

###

Target: EPHB1 (UniProt P54762)
Sequence (P54762 whole entry, looked up): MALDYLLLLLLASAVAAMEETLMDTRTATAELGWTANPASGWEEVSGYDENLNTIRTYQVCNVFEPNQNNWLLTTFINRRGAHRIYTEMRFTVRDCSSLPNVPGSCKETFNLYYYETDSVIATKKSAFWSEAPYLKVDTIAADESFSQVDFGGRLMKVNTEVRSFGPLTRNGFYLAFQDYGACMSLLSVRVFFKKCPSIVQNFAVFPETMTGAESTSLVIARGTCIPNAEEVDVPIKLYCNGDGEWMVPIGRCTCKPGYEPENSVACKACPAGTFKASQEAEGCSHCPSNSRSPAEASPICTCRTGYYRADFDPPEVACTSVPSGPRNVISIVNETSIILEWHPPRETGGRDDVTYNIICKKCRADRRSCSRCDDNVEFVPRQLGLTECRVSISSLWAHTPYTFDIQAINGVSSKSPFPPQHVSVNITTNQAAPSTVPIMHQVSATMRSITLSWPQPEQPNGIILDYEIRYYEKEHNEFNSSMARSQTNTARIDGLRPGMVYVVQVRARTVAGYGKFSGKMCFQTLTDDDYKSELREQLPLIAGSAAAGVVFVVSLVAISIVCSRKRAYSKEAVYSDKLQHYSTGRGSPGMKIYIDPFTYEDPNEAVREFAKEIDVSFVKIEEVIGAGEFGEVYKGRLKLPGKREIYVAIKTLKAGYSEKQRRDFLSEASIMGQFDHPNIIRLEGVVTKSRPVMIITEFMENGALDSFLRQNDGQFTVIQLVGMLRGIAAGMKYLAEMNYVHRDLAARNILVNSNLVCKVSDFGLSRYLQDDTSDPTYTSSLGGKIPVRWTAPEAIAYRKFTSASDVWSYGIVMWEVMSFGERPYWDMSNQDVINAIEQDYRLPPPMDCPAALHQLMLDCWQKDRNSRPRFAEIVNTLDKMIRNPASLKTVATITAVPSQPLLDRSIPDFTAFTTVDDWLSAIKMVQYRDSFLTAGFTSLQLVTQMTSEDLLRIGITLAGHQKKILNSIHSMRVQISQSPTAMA
Experiment: phosphorylation enrichment, bacterial display (enrichment ratio); higher = better substrate or ligand; peptides without Tyr show the background
# key: entry, value: phosphorylation enrichment
// return a plain number; no unit text

Lookup: Param readout = phosphorylation enrichment; param system = EPHB1 (UniProt P54762); param query = YLAAIYPTVGQ [NF1_Y2508_T2507I] ; response: value
Found: 0.511

Lookup: Param readout = phosphorylation enrichment; param system = EPHB1 (UniProt P54762); param query = QTLTDYDTRFF [CSNK2A3_Y131_I133T_YF] ; response: value
Found: 0.506

Lookup: Param readout = phosphorylation enrichment; param system = EPHB1 (UniProt P54762); param query = TVLGEYASPKG [CYP24A1_Y407_L409S] ; response: value
Found: 0.508

Lookup: Param readout = phosphorylation enrichment; param system = EPHB1 (UniProt P54762); param query = EEGNPSYSSAR [MCCC2_Y520_Y520S] ; response: value
Found: 0.514

###

Target: SHP2-C SH2;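 also: peptide library displayed on the E. coli surface as eCPX fusions, selected cells deep-sequenced, score is each peptide's frequency after selection divided by its frequency in the input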
Test: SH2 binding enrichment of the phosphorylated peptide, bacterial display (enrichment ratio); higher = better substrate or ligand; peptides without Tyr show the background
# key: entry, value: SH2 binding enrichment

QITQVCGFYDE [PPP2CA_Y127_Y127C]
0.58
SLGKGYYDGGC [MC4R_Y35_S36Y]
0.59

Lookup: For the sequence shown here, RSAGKYDVFLI [MECP2_Y120_YF] , give the reported SH2 binding enrichment.
Found: 0.677
